# system tested: Importin-β, recombinant, non-tagged (human, UniProt Q14974 1-876)
# Sequence (Q14974 whole entry): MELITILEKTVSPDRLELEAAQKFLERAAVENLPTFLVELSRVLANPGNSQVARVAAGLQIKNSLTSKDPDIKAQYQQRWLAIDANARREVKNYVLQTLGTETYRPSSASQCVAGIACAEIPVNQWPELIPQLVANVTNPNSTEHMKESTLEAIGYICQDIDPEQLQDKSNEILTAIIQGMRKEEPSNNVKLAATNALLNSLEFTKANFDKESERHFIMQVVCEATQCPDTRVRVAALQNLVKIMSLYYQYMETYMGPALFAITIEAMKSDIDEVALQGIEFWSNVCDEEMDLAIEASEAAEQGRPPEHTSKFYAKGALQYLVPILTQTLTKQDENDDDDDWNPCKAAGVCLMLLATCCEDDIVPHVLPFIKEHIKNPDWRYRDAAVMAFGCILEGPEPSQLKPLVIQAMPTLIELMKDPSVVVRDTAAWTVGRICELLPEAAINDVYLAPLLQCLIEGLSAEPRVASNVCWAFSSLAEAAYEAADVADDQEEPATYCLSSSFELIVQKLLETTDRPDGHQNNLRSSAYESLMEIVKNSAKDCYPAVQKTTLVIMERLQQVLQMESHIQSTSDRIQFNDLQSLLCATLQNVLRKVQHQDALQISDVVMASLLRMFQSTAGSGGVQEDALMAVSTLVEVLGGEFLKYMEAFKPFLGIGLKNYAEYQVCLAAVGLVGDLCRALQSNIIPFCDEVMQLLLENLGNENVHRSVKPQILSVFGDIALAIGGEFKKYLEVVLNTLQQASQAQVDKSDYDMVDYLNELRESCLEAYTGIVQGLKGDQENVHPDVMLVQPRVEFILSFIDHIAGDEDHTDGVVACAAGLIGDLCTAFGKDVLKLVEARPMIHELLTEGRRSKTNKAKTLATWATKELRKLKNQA
# method notes: ITC; phospho-S25
Where no end group is shown, it is not given here. [ ]: non-standard residue; d: D form. pS = N[C@@H](COP(=O)(O)O)C(=O)O
outcome measure: pKd
Would you please state pKd, meaning minus log10 of the concentration in mol/L, as a bare number?

Ask: What value of measured pKd is listed for AKKKLREYQQRN[pS]PGVPTGAKKKKKIKN [GM130-NLS phospho-S25 (synthetic peptide with a phosphate moiety on Ser-25 of GM130, a.a. 13-40)] ?
Result: 6.57
